Target: KDR (VEGFR2) (Homo sapiens, UniProt P35968)
Construct: purchased Invitrogen
Sequence (P35968 20-1356): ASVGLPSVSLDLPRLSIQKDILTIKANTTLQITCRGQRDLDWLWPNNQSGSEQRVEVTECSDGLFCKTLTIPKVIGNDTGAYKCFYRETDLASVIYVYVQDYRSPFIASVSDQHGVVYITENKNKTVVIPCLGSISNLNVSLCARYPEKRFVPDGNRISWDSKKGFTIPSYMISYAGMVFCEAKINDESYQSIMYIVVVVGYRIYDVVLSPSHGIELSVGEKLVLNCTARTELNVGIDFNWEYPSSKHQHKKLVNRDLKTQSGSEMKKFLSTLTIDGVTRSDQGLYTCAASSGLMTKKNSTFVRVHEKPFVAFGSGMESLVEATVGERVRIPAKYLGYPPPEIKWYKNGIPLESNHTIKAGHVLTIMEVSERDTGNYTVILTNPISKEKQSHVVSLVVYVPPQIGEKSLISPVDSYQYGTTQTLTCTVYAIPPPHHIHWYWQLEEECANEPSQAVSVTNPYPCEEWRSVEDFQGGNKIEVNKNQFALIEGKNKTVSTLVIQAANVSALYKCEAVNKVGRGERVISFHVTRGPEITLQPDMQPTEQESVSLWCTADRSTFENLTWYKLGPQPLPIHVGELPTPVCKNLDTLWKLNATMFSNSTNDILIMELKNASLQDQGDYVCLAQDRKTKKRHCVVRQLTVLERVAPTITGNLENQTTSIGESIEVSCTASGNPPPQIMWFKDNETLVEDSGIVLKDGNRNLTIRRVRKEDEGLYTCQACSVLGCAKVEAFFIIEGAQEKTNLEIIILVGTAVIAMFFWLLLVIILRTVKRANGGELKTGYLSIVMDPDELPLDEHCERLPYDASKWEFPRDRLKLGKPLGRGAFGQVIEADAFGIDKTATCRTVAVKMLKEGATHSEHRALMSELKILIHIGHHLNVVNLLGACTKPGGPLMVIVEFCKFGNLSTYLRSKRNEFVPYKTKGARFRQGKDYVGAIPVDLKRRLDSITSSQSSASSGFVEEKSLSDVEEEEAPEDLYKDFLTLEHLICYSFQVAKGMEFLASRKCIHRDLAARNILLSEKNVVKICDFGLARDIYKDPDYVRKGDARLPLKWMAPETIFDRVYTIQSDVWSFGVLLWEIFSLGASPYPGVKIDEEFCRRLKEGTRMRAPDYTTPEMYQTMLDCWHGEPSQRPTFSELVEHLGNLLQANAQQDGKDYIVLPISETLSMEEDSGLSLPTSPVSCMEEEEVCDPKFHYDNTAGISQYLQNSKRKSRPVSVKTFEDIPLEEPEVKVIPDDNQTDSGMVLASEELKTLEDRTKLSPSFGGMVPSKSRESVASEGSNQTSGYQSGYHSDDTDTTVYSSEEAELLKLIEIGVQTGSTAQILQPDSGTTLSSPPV
Assay: In vitro kinase assay (Z'-LYTE), KDR (VEGFR2)
Format: biochemical
Settings: read-out: % of inhibition of the kinase compared to the control
ASSAY ENDPOINT: inhibition at 0.1 µM

Guide cases for inhibition at 0.1 µM, answers given:
{"columns": ["MOLECULE", "inhibition at 0.1 µM"],
 "data": [
  ["CC(=O)c1cc2cc(NCc3cc(NC(=O)c4cc[nH]c4)ccc3C)cnc2[nH]1", "< 50%"],
  ["Cc1ccc(NC(=O)c2ccc(CN3CCN(C)CC3)cc2)cc1CNc1cnc2[nH]c(C(=O)O)cc2c1", "≥ 50%"],
  ["CC(=O)c1cc2cc(NCc3cc(NC(=O)Nc4cccc(C(F)(F)F)c4)ccc3C)cnc2[nH]1", "< 50%"],
  ["CC(=O)c1cc2cc(NCc3cc(NC(=O)c4ccc5[nH]nnc5c4)ccc3C)cnc2[nH]1", "< 50%"],
  ["CC(=O)c1cc2cc(NCc3cc(NC(=O)c4cncc(C(F)(F)F)c4)ccc3F)cnc2[nH]1", "≥ 50%"]
]}

## Input Reported inhibition at 0.1 µM, molecule CC(=O)c1cc2cc(NCc3cc(NC(=O)c4ccc(Cl)c(C(F)(F)F)c4)ccc3C)cnc2[nH]1 : ____
## Output < 50%

## Input Okay, and CC(=O)c1cc2cc(NCc3cc(NC(=O)c4ccc(CN5CCN(C)CC5)c(C(F)(F)F)c4)ccc3F)cnc2[nH]1 ?
## Output ≥ 50%

## Input Okay, and CC(=O)c1cc2cc(NCc3cc(NC(=O)c4ccc(CN5CCC(N(C)C)C5)c(C(F)(F)F)c4)ccc3C)cnc2[nH]1 (stereo not drawn) ?
## Output ≥ 50%

## Input Okay, and Cc1cn(-c2cc(C(=O)Nc3ccc(C)c(CNc4cnc5[nH]c(C(=O)O)cc5c4)c3)cc(C(F)(F)F)c2)cn1 ?
## Output ≥ 50%

## Input Okay, and CC(=O)c1cc2cc(NCc3cc(NC(=O)c4ccc(CN5CC[C@H](N(C)C)C5)c(C(F)(F)F)c4)ccc3F)cnc2[nH]1 ?
## Output ≥ 50%

## Input Okay, and CC(=O)c1cc2cc(NC(=O)c3cc(NC(=O)Nc4cccc(C(F)(F)F)c4)ccc3C)cnc2[nH]1 ?
## Output < 50%

## Input Okay, and CC(=O)c1cc2cc(NCc3cc(NC(=O)c4ccc(C(F)(F)F)nc4)ccc3C)cnc2[nH]1 ?
## Output < 50%

## Input Okay, and CC(=O)c1cc2cc(NCc3cc(NC(=O)Nc4cccnc4)ccc3C)cnc2[nH]1 ?
## Output < 50%

## Input Okay, and CC(=O)c1cc2cc(NCc3cc(NC(=O)c4cccc(C(F)(F)F)c4)ccc3C)cnc2[nH]1 ?
## Output ≥ 50%

## Input Okay, and CC(=O)c1cc2cc(NCc3cc(NC(=O)c4cc(-n5cnc(C)c5)cc(C(F)(F)F)c4)ccc3C)cnc2[nH]1 ?
## Output < 50%
